Molecular target: Protein mono-ADP-ribosyltransferase PARP4 (Homo sapiens, UniProt Q9UKK3)
Sequence (Q9UKK3 whole entry, the tested form may be a part): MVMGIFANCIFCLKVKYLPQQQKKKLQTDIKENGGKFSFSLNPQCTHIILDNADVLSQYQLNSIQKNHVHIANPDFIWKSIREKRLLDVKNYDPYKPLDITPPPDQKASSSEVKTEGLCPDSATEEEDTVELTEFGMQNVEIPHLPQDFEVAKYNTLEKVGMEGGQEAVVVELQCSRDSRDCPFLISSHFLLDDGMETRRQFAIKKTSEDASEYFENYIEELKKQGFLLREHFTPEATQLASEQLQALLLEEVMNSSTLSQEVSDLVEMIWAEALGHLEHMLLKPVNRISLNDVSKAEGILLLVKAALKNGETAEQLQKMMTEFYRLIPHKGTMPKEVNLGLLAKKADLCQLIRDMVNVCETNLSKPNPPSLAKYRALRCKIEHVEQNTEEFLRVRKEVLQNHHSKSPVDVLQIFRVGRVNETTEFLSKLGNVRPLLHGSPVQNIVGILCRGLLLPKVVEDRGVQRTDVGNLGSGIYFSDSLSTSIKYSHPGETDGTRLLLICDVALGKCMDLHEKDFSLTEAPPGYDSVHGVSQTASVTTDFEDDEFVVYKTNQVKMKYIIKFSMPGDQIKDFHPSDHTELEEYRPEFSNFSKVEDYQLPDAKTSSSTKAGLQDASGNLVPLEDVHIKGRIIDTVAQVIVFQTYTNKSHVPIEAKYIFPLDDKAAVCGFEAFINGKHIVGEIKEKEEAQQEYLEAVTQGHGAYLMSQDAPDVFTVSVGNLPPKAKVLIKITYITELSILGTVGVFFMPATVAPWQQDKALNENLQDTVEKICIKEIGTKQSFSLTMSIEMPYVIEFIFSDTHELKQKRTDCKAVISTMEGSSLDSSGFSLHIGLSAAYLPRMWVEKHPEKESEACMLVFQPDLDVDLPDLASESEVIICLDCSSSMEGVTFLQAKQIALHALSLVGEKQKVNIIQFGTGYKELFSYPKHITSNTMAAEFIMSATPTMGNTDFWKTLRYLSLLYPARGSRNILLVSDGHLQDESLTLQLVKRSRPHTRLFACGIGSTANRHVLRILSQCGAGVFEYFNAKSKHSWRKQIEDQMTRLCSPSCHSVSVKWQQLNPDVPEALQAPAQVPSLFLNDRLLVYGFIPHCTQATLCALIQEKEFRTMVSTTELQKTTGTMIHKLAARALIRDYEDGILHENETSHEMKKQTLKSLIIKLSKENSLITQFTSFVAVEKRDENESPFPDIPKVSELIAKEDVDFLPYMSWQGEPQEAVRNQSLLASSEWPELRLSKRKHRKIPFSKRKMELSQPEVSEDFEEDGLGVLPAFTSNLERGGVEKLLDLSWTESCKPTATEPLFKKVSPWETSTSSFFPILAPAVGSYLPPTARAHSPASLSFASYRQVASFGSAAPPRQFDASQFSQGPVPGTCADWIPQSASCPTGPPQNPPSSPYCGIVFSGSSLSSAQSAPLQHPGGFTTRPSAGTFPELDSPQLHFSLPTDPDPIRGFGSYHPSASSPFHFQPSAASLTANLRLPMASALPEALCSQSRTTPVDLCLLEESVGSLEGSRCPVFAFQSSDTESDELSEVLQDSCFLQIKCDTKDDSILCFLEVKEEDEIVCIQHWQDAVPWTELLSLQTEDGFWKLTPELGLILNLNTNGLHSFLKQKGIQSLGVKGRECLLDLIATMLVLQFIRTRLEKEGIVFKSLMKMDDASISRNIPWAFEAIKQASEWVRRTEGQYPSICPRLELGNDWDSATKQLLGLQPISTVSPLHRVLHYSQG
Experiment: Inhibition of N-terminal His-tagged recombinant human PARP4 brct-catalytic domain (369 to 573 residues) expressed in Escherichia coli BL21 (DE3) preincubated with 6-a-NAD+ for 5 to 10 mins followed by enzyme addition and measured after 60 mins using NAD+ as substrate byHRP based chemiluminescence assay
Metric name: pIC50
Hey, just a heads up that pIC50 is the negative log base 10 of the concentration in molar.

- Cc1cc(Br)cc2c(=O)[nH]c(CSc3ccc(C(=O)O)cc3)nc12: 5.72
- Cc1cc(Br)cc2c(=O)[nH]c(CSc3ncccn3)nc12: 6.10
- Cc1cc(C)c2nc(CSc3ncccn3)[nH]c(=O)c2c1: 6.30

Task: Return pIC50 measured with Protein mono-ADP-ribosyltransferase PARP4 (Homo sapiens, UniProt Q9UKK3) given this compound: Cc1cc(I)cc2c(=O)[nH]c(CSc3ncccn3)nc12
Result: 5.57

Task: Similarly, Cc1cc(I)cc2c(=O)[nH]c(CSc3ccc(C(=O)O)cc3)nc12 ?
Result: 6.10

====

Biological target: Protein mono-ADP-ribosyltransferase PARP11 (Homo sapiens, UniProt Q9NR21)
Sequence (Q9NR21 whole entry): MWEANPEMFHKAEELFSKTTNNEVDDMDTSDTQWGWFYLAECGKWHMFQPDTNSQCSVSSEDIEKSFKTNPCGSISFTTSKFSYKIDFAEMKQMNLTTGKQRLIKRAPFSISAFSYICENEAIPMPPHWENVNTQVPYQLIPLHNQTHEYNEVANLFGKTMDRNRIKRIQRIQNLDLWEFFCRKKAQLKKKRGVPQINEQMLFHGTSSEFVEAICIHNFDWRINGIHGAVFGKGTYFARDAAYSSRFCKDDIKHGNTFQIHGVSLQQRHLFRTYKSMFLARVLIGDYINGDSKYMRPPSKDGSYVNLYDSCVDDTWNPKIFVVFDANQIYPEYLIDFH
Metric name: IC50
Could you give the number and then its unit, please?

Task: Which IC50 is reported for this compound? Cc1cccc2c(=O)[nH]c(CSc3ncccn3)nc12
Result: 200 nM

====

Molecular target: Poly [ADP-ribose] polymerase 1 (Homo sapiens)
Sequence (P09874 whole entry): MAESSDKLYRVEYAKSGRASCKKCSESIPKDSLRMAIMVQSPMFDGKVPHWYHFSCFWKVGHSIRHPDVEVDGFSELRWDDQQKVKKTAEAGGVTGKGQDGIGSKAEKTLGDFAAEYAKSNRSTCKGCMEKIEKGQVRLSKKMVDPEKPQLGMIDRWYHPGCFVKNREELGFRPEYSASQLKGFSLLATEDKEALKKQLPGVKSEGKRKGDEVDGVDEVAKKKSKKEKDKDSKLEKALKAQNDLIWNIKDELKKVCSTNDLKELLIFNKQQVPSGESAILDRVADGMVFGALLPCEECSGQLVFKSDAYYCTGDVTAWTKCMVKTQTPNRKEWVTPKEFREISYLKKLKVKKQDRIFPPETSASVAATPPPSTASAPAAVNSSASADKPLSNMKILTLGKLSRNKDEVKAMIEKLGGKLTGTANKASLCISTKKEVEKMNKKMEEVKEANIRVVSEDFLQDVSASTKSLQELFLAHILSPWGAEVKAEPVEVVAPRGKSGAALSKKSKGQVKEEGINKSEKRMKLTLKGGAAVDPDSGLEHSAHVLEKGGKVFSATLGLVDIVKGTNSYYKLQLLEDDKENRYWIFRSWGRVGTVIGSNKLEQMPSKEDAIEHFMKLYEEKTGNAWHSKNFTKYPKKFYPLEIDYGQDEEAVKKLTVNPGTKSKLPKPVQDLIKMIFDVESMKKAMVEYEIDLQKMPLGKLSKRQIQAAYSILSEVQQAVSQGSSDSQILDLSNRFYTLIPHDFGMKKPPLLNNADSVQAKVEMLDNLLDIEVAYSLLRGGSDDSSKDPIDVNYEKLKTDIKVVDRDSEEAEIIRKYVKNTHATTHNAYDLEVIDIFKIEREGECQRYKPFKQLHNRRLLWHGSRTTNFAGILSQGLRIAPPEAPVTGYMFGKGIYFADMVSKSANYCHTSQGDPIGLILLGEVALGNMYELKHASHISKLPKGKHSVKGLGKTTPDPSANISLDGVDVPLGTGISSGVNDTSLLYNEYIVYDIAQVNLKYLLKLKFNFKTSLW
Metric name: pIC50
pIC50 field: float, defined as -log10 of concentration (mol/L).

Task: Could you share which pIC50 value was measured for Cc1cc(C)c2nc(CSc3ncccn3)[nH]c(=O)c2c1 ?
Result: 7.00
